Parameter: IRF reporter. Scope: all listed entries.
- Tested on: RAW-Dual (murine macrophage reporter line)
- experimental-protocol: IRF reporter (Lucia luciferase) activity fold change vs agonist alone; higher = enhanced IRF activity
- condition-details: modulator concentration 10 µM; agonist: LPS 0.1 ug/mL
Give your answer as a number; write no unit.

INSERT INTO results (line_notation, attribute_measured, reported_value) VALUES
  ('Br.COc1ccc2c3c1O[C@H]1C[C@@H](O)C=C[C@@]31CCN(C)C2', 'IRF reporter', 0.995),
  ('COc1ccc(CCNc2cc(C)nc3cc(-c4ccc(OC)c(OC)c4)nn23)cc1OC', 'IRF reporter', 0.978);

Now for the compound whose IRF reporter we want.
Provide IRF reporter, system RAW-Dual (murine macrophage reporter line), entry COc1cc(Cl)c(C)cc1NC(=O)c1ccccc1Cl 0.991

* * *

- System: RAW-Dual (murine macrophage reporter line)
- experimental-protocol: NF-kB reporter (SEAP) activity fold change vs agonist alone; higher = enhanced NF-kB activity
- condition-details: modulator concentration 10 µM; agonist: MPLA […]
Parameter: NF-kB reporter. Scope: all listed entries.
Give your answer as a number; write no unit.

Below, each entry is followed by its recorded NF-kB reporter result.
INSERT INTO measurements (compound, attribute_measured, reported_value) VALUES
  ('CC(C)Oc1ccc(C(=O)NC2CCN(c3ncnc4c3CCCC4)CC2)cn1', 'NF-kB reporter', 0.985),
  ('Cc1ncsc1C(=O)NC1CCC(F)(F)CC1', 'NF-kB reporter', 0.991),
  ('CCOC(=O)c1ccccc1NC(=O)CN(c1cc(C)ccc1OC)S(C)(=O)=O', 'NF-kB reporter', 0.994),
  ('O=C(NCC1CCCO1)c1[nH]nnc1-c1ccc(F)cc1 (configuration not stated)', 'NF-kB reporter', 1.01),
  ('NC1CONC1=O (configuration not stated)', 'NF-kB reporter', 1);

// fetch NF-kB reporter given entry O=C(c1cc2nc(-c3ccccc3)cc(-c3ccccc3)n2n1)N1CCCCCC1 0.976

// fetch NF-kB reporter given entry Cc1cc(C(O)CNC(=O)c2ccc(C(F)(F)F)nc2)c(C)o1 (configuration not stated) 1.01

* * *

Parameter: viability score. Scope: all listed entries.
- Test system: RAW-Dual (murine macrophage reporter line)
- experimental-protocol: viability score (confluency relative to resting cells, overnight) (fraction); higher = more viable, active = viable (0.7 or more)
- condition-details: modulator concentration 10 µM
Give your answer as a number; write no unit.

Provide viability score, system RAW-Dual (murine macrophage reporter line), entry COc1ccc(NC(=O)c2cn(-c3cc(N4CCSCC4)ncn3)cn2)cc1 0.997

* * *

- System: RAW-Dual (murine macrophage reporter line)
- experimental-protocol: IRF reporter (Lucia luciferase) activity fold change vs agonist alone; higher = enhanced IRF activity
- condition-details: modulator concentration 10 µM; agonist: MPLA […]
attribute-measured: IRF reporter
Give your answer as a number; write no unit.

INSERT INTO assay_data (compound, attribute_measured, reported_value) VALUES
  ('CCOC(=O)C1CCCN(S(=O)(=O)c2ccc(F)cc2)C1 (stereo not given)', 'IRF reporter', 1.02);

// fetch IRF reporter given entry CCn1cc(C(=O)NN)c(=O)c2cc(F)c(N3CCCCCC3)cc21 1.19

// fetch IRF reporter given entry COc1ccc(OC)c(C2CC(c3ccc(Cl)cc3)=NN2S(C)(=O)=O)c1 (stereo not given) 1.19

// fetch IRF reporter given entry CSc1nc(C(C)(C)C)cc(C(F)(F)F)c1C#N 0.923

* * *

- Test system: RAW-Dual (murine macrophage reporter line)
- experimental-protocol: IRF reporter (Lucia luciferase) activity fold change vs agonist alone; higher = enhanced IRF activity
- condition-details: modulator concentration 10 µM; agonist: 3'3'-cGAMP 10 ug/mL
attribute-measured: IRF reporter
Give your answer as a number; write no unit.

// fetch IRF reporter given entry CC(C)NCC(O)COc1ccccc1C(C)(C)C.Cl (stereo unspecified) 0.796

// fetch IRF reporter given entry COc1cc(C(=O)Nc2ccc(-c3ccc(N4CCC(C)CC4)nn3)cc2)cc(OC)c1OC 1.02

* * *

- Test system: RAW-Dual (murine macrophage reporter line)
- experimental-protocol: IRF reporter (Lucia luciferase) activity fold change vs agonist alone; higher = enhanced IRF activity
- condition-details: modulator concentration 10 µM; agonist: 3'3'-cGAMP 10 ug/mL
attribute-measured: IRF reporter
Give your answer as a number; write no unit.

Below, each entry is followed by its recorded IRF reporter result.
INSERT INTO results (compound, target_under_test, attribute_measured, reported_value) VALUES
  ('COc1ccc(CCNC2CC(=O)N(C)C2=O)cc1OC (configuration not stated)', 'RAW-Dual (murine macrophage reporter line)', 'IRF reporter', 0.944),
  ('CO[C@@]12[C@H](COC(N)=O)C3=C(C(=O)C(C)=C(N)C3=O)N1C[C@@H]1N[C@@H]12', 'RAW-Dual (murine macrophage reporter line)', 'IRF reporter', 1.21),
  ('O=C(NCCCOc1cccc2cccnc12)c1cnccn1', 'RAW-Dual (murine macrophage reporter line)', 'IRF reporter', 0.95),
  ('Cn1c(=O)[nH]c2nnc(-c3ccncc3)nc2c1=O', 'RAW-Dual (murine macrophage reporter line)', 'IRF reporter', 0.935),
  ('CCCC(=O)OCOC(=O)C1=C(C)NC(C)=C(C(=O)OC)C1c1cccc(Cl)c1Cl (configuration not stated)', 'RAW-Dual (murine macrophage reporter line)', 'IRF reporter', 0.995);

// fetch IRF reporter given entry O=C(Oc1ccc2oc(=O)sc2c1)c1ccccc1 0.325

// fetch IRF reporter given entry COC(=O)N[C@H](C(=O)N1CCC[C@H]1c1ncc(-c2ccc(-c3ccc(-c4cnc([C@@H]5CCCN5C(=O)[C@@H](NC(=O)OC)C(C)C)[nH]4)cc3)cc2)[nH]1)C(C)C.Cl.Cl 1.27

* * *

- Tested on: RAW-Dual (murine macrophage reporter line)
- experimental-protocol: IRF reporter (Lucia luciferase) activity fold change vs agonist alone; higher = enhanced IRF activity
- condition-details: modulator concentration 10 µM; agonist: 3'3'-cGAMP 10 ug/mL
Parameter: IRF reporter. Scope: all listed entries.
Give your answer as a number; write no unit.

// fetch IRF reporter given entry CC(N)C12CC3CC(CC(C3)C1)C2.Cl (stereo not drawn) 0.919

// fetch IRF reporter given entry COc1cccc(N2CC(C(=O)NC3CCN(c4nccn5c(C)nnc45)CC3)CC2=O)c1 (stereo not drawn) 0.968

// fetch IRF reporter given entry Cc1nccn1CC1CCc2c(c3ccccc3n2C)C1=O.Cl.O.O (stereo not drawn) 0.832

* * *

Parameter: IRF reporter. Scope: all listed entries.
- System: RAW-Dual (murine macrophage reporter line)
- experimental-protocol: IRF reporter (Lucia luciferase) activity fold change vs agonist alone; higher = enhanced IRF activity
- condition-details: modulator concentration 10 µM; agonist: 3'3'-cGAMP 10 ug/mL
Give your answer as a number; write no unit.

INSERT INTO measurements (compound, reported_value) VALUES
  ('Cc1cc(=O)[nH]c(-n2nc(C)c(CCC(=O)N3CCN(C)CC3)c2C)n1', 1.01),
  ('CC(=O)N(C=Cc1cc[n+](CCCS(=O)(=O)[O-])c2ccccc12)c1ccccc1', 1.01),
  ('COCCN(CCOC)C(=O)Cc1csc2nc(-c3ccc(F)cc3)cn12', 0.947),
  ('C=CCc1ccc(O)c(OC)c1', 0.524);

Now for the compound whose IRF reporter we want.
// fetch IRF reporter given entry CC(C)CN(CC(O)C(Cc1ccccc1)NC(=O)OC1COC2OCCC12)S(=O)(=O)c1ccc(N)cc1 (stereo not given) 0.872

* * *

- Tested on: RAW-Dual (murine macrophage reporter line)
- experimental-protocol: NF-kB reporter (SEAP) activity fold change vs agonist alone; higher = enhanced NF-kB activity
- condition-details: modulator concentration 10 µM; agonist: LPS 0.1 ug/mL
Parameter: NF-kB reporter. Scope: all listed entries.
Give your answer as a number; write no unit.

Below, each entry is followed by its recorded NF-kB reporter result.
INSERT INTO assay_data (molecule, target_under_test, reported_value) VALUES
  ('O=C(NC1CC2CCC1C2)c1ccccc1 (stereo not drawn)', 'RAW-Dual (murine macrophage reporter line)', 0.994),
  ('CCCC(CCC)C(=O)O', 'RAW-Dual (murine macrophage reporter line)', 1.01),
  ('Cc1ccc(C=Nc2ccc(-c3ccc(N=Cc4ccc(C)o4)c(C)c3)cc2C)o1', 'RAW-Dual (murine macrophage reporter line)', 0.984);

Now for the molecule whose NF-kB reporter we want.
// fetch NF-kB reporter given entry COC(=O)C1=C(C)NC2=C(C(=O)CC(C)(C)C2)C1c1ccc(OC)c(O)c1 (stereo not drawn) 0.981

* * *

- Tested on: RAW-Dual (murine macrophage reporter line)
- experimental-protocol: viability score (confluency relative to resting cells, overnight) (fraction); higher = more viable, active = viable (0.7 or more)
- condition-details: modulator concentration 10 µM
Parameter: viability score. Scope: all listed entries.
Give your answer as a number; write no unit.

INSERT INTO assay_data (line_notation, reported_value) VALUES
  ('Cc1c(C(=O)OC(C)C)sc(NC(=O)C(C)(C)C)c1C(=O)OC(C)C', 0.985),
  ('O=c1n(CCNS(=O)(=O)Cc2ccccc2)nc(C2CC2)n1-c1ccccc1', 1.01),
  ('CC(C)(Oc1ccc(Cl)cc1)C(=O)Nc1cnoc1', 0.979);

// fetch viability score given entry c1ccc(C2=Nc3ccccc3N=C(c3ccccc3)c3ccccc32)cc1 0.979

// fetch viability score given entry O=C(NCCO)c1cc(C(=O)NCCO)cc(C(=O)NCCO)c1 1.01

// fetch viability score given entry CS(=O)(=O)O.N#CC1(c2ccc(NC(=O)c3cccnc3NCc3ccncc3)cc2)CCCC1 0.992

// fetch viability score given entry [O-][n+]1cccc(CO)c1 0.987
